Values were extracted from the RNAGym collection of RNA variant scans (doi:10.7554/elife.80360).

B1: HDV Ribozyme (parent)
chain: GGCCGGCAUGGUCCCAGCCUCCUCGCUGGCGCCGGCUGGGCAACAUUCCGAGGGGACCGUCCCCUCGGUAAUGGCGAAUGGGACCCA

Variants of: B1
measurementDescription: self-cleavage, relative activity (ratio to wild type); higher = more cleavage; co-transcriptional

>  <mutationAnnotation>
G2U C84G

>  <self-cleavage>
0.0213

$$$$
>  <mutationAnnotation>
G28C A71U

>  <self-cleavage>
0.0426

$$$$
>  <mutationAnnotation>
G1U C33A

>  <self-cleavage>
0.295

$$$$
>  <mutationAnnotation>
G76A C86A

>  <self-cleavage>
0.855

$$$$
>  <mutationAnnotation>
U65C G68C

>  <self-cleavage>
0.883

$$$$
>  <mutationAnnotation>
C15G G40U

>  <self-cleavage>
0.354

$$$$
>  <mutationAnnotation>
G25C C57G

>  <self-cleavage>
0.119

$$$$
>  <mutationAnnotation>
C7A G80U

>  <self-cleavage>
0.152

$$$$
>  <mutationAnnotation>
C15A G28A

>  <self-cleavage>
0.136

$$$$
>  <mutationAnnotation>
G31C A51C

>  <self-cleavage>
0.475

$$$$
>  <mutationAnnotation>
C57G G74C

>  <self-cleavage>
0.446

$$$$
